Each entry below carries its reported IC50.
- experimental_system: human TLR9 (Homo sapiens)
- Sequence (Q9NR96 26-1032): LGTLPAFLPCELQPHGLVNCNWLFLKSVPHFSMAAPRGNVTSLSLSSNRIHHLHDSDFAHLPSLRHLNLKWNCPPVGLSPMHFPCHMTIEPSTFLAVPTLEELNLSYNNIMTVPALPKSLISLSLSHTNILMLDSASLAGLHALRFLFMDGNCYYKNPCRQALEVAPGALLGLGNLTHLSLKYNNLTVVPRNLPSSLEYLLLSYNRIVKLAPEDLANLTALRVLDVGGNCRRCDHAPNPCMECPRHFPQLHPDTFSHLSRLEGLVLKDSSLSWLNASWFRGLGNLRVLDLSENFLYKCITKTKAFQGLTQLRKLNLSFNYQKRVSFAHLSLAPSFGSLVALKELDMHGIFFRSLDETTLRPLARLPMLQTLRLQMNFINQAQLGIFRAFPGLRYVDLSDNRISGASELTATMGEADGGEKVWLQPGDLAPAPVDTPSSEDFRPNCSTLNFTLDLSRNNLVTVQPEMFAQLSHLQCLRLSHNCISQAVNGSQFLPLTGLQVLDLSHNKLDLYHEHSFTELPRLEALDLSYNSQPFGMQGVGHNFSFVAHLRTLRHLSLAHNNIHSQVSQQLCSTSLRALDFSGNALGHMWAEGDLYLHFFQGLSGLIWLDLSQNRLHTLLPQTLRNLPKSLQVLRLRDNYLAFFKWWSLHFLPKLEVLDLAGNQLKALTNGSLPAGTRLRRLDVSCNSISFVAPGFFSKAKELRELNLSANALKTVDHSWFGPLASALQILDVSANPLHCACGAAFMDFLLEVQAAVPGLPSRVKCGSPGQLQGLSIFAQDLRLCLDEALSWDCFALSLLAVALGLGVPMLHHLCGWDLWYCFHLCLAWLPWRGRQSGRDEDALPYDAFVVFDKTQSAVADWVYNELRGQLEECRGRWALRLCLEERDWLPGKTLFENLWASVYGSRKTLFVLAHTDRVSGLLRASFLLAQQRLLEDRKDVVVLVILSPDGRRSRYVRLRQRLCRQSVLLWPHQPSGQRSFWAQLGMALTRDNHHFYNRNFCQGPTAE
- procedure_details: TLR9 inhibition reporter assay (HEK-Blue cells, SEAP reporter, ODN2006 stimulation)
- condition_summary: HEK-Blue cells overexpressing human TLR9, SEAP reporter, ODN2006 5 nM

compound	IC50
CC(C)c1c(-c2ccc3[nH]ccc3c2)[nH]c2ccc(C3CCNCC3)cc12	1000 to 50000 nM
Cc1cc2nnnn2cc1-c1[nH]c2ccc(C3CCN(CCS(C)(=O)=O)CC3)cc2c1C(C)C	1000 to 50000 nM
CC(C)c1c(-c2cnc3cn[nH]c3c2)[nH]c2ccc(C3CCNCC3)cc12	100 to 1000 nM
CNC(=O)CN1CCC(c2ccc3[nH]c(-c4ccc5c(cnn5C)c4C)c(C(C)C)c3c2)CC1	> 50000 nM
Cc1cn2cc(-c3[nH]c4ccc(C5CCN(C(=O)C[C@H](C)O)CC5)cc4c3CC(F)F)ccc2n1	1000 to 50000 nM
CC(C)c1c(-c2cnc3ncccn23)[nH]c2ccc(C3CCNCC3)cc12	100 to 1000 nM

Return the recorded IC50 value; entry: `Cc1cc(-c2[nH]c3ccc(C4CCN(CCCC(F)(F)F)CC4)cc3c2C(C)C)cn2nncc12`
1000 to 50000 nM

Return the recorded IC50 value; entry: `COc1cc(-c2[nH]c3ccc(C4CCN(CC(=O)N(C)C)CC4)cc3c2C(C)C)cc2nc(C)nn12`
1000 to 50000 nM

Return the recorded IC50 value; entry: `CC(C)c1c(-c2ccc3cncn3c2)[nH]c2ccc(C3CCNCC3)cc12`
1000 to 50000 nM
